From: the supplement of paper PMC6555819

tested on: PPARg DBDmut:RXRa IVT, anti-PPARg (DBD mutation: PPARg1 K132A/R137A, NR concentration 270 nM, RXRa partner concentration 90 nM); assay: PBM binding z-score (relative to random genomic background probes); higher = stronger binding; sequences stand for … in GC…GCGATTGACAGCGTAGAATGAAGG
# Lookup of reported PBM binding z-score keyed by entry

itemSequence	PBM binding z-score
CCTACTGGGTCAAAGGTCATTGATTCCAATGCTC	3.67
CAAACTAGGTCACGAGAGGTCAAAGTCGAATGAC	3.71
CGTCAAAGGTCAGCAGGTCAGTGAAAGCGACGTG	1.7
CCTACTCGGCCAAAAAGGTCATTGATGCCGATAA	-0.62
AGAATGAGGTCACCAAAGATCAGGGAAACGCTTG	1.62
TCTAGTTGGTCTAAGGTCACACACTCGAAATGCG	1.67
CCTTAGGGGTCACTGACAGGTTATAGCATTTGGA	1.68
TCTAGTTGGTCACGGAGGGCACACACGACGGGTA	0.649
GCTGCGAGGTCAACTGATGGTCAGCTAAAGCTCG	0.48
CCTACTGGGCCAAAAAGTTCATTGATGCCGATAA	-1.13
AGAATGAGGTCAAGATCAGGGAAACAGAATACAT	2.94
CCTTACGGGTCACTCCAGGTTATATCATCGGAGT	0.671

====

system: PPARg:RXRa 30nM:10nM, anti-RXR (NR concentration 30 nM, RXRa partner concentration 10 nM); test: PBM binding z-score (relative to random genomic background probes); higher = stronger binding; sequences stand for … in GC…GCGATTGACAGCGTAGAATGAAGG

itemSequence	PBM binding z-score
TAGCCTAGGTCACATCGGGCCAGTATACGCTATA	0.683
ATATGTAGGTTACCTGGGGTCATTCAGACTAGGC	3.84
CAAACTAGGTCAAAAGGTCAAAGTCCGCTTCCCG	7.62
ATCAAAAGGTCGAGGTGAGTATAGAGAAAGGGAA	1.51
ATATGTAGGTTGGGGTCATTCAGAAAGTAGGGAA	3.16
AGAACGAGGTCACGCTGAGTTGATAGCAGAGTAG	6.32
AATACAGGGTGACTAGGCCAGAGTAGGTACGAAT	0.461
AGTCAAAGGTCATCTAGGTAACGTAAGATATGCT	6.82
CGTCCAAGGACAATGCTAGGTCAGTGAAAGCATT	-0.602
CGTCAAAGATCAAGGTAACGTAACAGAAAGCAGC	0.0515
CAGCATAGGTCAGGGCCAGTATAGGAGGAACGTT	0.464
ACTTAGGGGTCAACGAGGTTATAGCACGCGTATA	6.08
ATATGTAGGTTACATCCGGGTCATCCAGGCTATG	2.47
CGTCAAAGGTCAAGGTCAGTGAAAGAGACTCGAA	6.2
TGTCAAAGTTCAAAGGTCACGTAAGTATCCACAC	7.66
CGTCCAAAGTCAAAGGTCAGTGAAGAGATGACGG	3.89
TCTAGTCGGTCAAAGGTCACACACTCGAAATGCG	11.1
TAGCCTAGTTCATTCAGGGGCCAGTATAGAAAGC	-0.157
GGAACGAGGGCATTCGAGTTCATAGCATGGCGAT	-0.096
GCTGCTAGGTCAACTGATGGTCAACTAAAGCTCG	0.746
CCGAGAAGGTTACGAGGGGGCATTCAGTGCGAAT	0.996
AGTCAAAGTTCATCTAGGTCACGTAAGATATGCT	4.56
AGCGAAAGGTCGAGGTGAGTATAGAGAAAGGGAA	1.4
TGTCAAAGTTCAAAGGTTACGTAAGTATCCACAC	5.91
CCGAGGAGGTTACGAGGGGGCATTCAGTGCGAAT	0.838
TTGCCTAGGTCATTGGGCCAGTATAGTACGCATC	1
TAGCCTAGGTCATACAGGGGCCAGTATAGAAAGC	0.845
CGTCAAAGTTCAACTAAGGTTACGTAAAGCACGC	2.42
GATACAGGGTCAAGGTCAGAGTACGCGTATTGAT	4.07
CTACCAAGGTCAACAAGGTCGTTGATTACTATTC	2.68
GATACGGGGTCAAGGCCAGAGTACGCGTATTGAT	5.85
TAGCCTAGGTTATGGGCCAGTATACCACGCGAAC	-0.0157
CCTTACGGGTCACGAGGTCATAGCACGACGAGCG	4.61
ATCGAAAGGTCAAGGTGAGTATAGAGAAAGGGAA	5.24
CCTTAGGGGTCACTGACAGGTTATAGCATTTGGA	5.34
GCTTAAGGGTCAAAGGTTATAGCATGAATAGAAT	8.73
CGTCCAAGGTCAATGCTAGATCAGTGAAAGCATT	1.52
ATCGAAAGGTCAACGAGGTGAGTATACACCGTTT	5.13
CCTTACGGGTCACGAGGTTGTAGCACGACGAGCG	3.32
ATCTCTAGGTTAAGATAGTTCAGTGAATGCAAAT	0.609
CGTCCAAGGTCATTGGAGGTCAGTGAAGACAGAT	2.48
GGAACGAGGTCAAAGTTGATAGCATCTGTCGACG	8.72
CGTCCAAGGTCGAAGGTCAGTGAAGAGATGACGG	3.26
CGAACGAGGTCATGAGTTGATAGCAAATGCCGAT	4.16
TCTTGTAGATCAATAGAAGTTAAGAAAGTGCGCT	3.04
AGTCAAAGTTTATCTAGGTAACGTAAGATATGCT	0.904
CTATGTAGGTCAAGGGGGTCATTCAGTTTGAAAG	8.54
ATCGAAAGGTCTAAGGTGAGTATACCCACCCGAA	0.802
GGAACGAGGGCAAAGTTCATAGCATCTGTCGACG	9.74
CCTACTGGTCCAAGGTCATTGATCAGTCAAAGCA	0.847
CGTCCGAGGTCAAGGTCAGTGAAAGAGACTCGAA	3.9
